system: PPARg:RXRa (NR concentration 180 nM, RXRa partner concentration 90 nM); assay: PBM binding z-score (relative to random genomic background probes); higher = stronger binding; sequences stand for … in GC…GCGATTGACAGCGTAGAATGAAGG
Parameter: PBM binding z-score
No unit in the answer, only the number.

{"Residue Sequence": "TTTTGTAGATCAGCAGGTTAAGAAAGCTGGCCAA", "Parameter": "PBM binding z-score", "Assay Value": -0.106}
{"Residue Sequence": "ATCGAAAGGTCTAGGTGAGTATAGAGAAAGGGAA", "Parameter": "PBM binding z-score", "Assay Value": 0.509}
{"Residue Sequence": "TTACCAAGGTGAGCTGAGGTCGGTGATCCAACTC", "Parameter": "PBM binding z-score", "Assay Value": 0.209}

Input TCTATTAGTTGATTGGGGCAACCGAAACAGCGGA . Output PBM binding z-score: 0.235

Lab note: CAGCCTAGGTCAGAGCCAGTATAGGAGGAACGTT gave PBM binding z-score of 0.786

sequence CCTACTGGGCCAAGGTCATTAATCAGTCAAAGCA , PBM binding z-score observed: 3.45

Recorded result, CTCGAATGGTCGTGCTCAGGTGAGTATACCAAAC , PBM binding z-score: -0.329

Reported PBM binding z-score ( CAAACTAGGTCAAGGTCAGAGTCGGTTTGTGCCA ) = 9.05
